Data provenance: a melting point compilation (Tetko et al.; mined from patent text by program, amines drawn as free bases though some values may be those of a salt)

melting point overview

In the examples that follow, each entry is paired with its recorded melting point.
CC(Oc1cc(Oc2ccc(C(F)(F)F)cc2Cl)ccc1[N+](=O)[O-])C(=O)OCn1cccn1 (stereo not drawn): 75 °C
CCc1c(-c2ccccc2)n(-c2ccccc2Cl)c(-c2ccccc2)cc1=O: 165 to 166 °C
C=CCc1cc2c(c(CC=C)c1O)NC(=O)CC2: 86 to 88 °C
CC(=O)OCC(=O)Nc1cccc(N2CCOCC2)c1C#N: 131 to 132 °C
Nc1c(-c2ccc(-c3ccccc3F)cc2)nc2ccc(Cl)cc2c1C(=O)O: 247 to 249 °C

So, "COc1cccc(C=C2CCc3c2nc2ccc(C(=O)O)cn2c3=O)c1" ? Its melting point was 310 to 312 °C

Record "CC(C)(C)c1ccc(CSc2nc3cnccc3[nH]2)cc1" . Reported melting point: 207 to 208 °C

In plain terms, O=S(Cc1cccc(O)c1)c1nc2cnccc2[nH]1 (stereo not drawn) has a documented melting point of 224 to 227 °C

Reported melting point for "CCCc1nc(OC)c(NC(=O)N2CCN(c3cc(OC)cc(OC)c3)CC2)cc1C" was 121 to 122 °C

Noted for "CNC(=O)c1cccc(NC(=O)Cc2ccc(C)cc2)c1" : its melting point reads 174 to 175 °C
